# assayed-target: Serine/threonine-protein kinase TNNI3K (Homo sapiens)
# assay-method-text: Displacement of 5-({[2-({[3-({4-[(5-hydroxy-2-methylphenyl)amino]-2-pyrimidinyl}amino)phenyl]carbonyl}amino)-ethyl]amino}carbonyl)-2-(6-hydroxy-3-oxo-3H-xanthen-9-yl)benzoic acid from His6-MBP-TEV-full length human TNNI3K expressed in Baculovirus expression system after 60 mins by fluorescence polarization assay
experimental-readout: pIC50
For clarity, pIC50 is expressed as the negative log10 of concentration in mol/L.

>  <smiles-notation>
CNS(=O)(=O)c1cc(Nc2ncnc3[nH]cnc23)ccc1C

>  <readout-number>
4.89

$$$$
>  <smiles-notation>
CNS(=O)(=O)c1cccc(Nc2ncnc3[nH]c(-c4cccc(C(F)(F)F)c4)cc23)c1

>  <readout-number>
7.20

$$$$
>  <smiles-notation>
CNS(=O)(=O)c1cccc(Nc2ncnc3[nH]cc(C)c23)c1

>  <readout-number>
7.40

$$$$
>  <smiles-notation>
CNS(=O)(=O)c1ccc(N2CCOCC2)c(Nc2ncnc3[nH]cc(C)c23)c1

>  <readout-number>
7.89

$$$$
>  <smiles-notation>
CNS(=O)(=O)c1ccc(N2CCOCC2)c(Nc2ncnc3[nH]ccc23)c1

>  <readout-number>
7.40

$$$$

Data request: Provide measured pIC50 on Serine/threonine-protein kinase TNNI3K (Homo sapiens) for CCS(=O)(=O)c1cccc(Nc2ncnc3[nH]cnc23)c1 please.
Data returned: 5.20

###

Catalogue of compounds with associated pIC50
# assayed-target: Serine/threonine-protein kinase TNNI3K (Homo sapiens, UniProt Q59H18)
# assay-method-text: Displacement of 5-({[2-({[3-({4-[(5-hydroxy-2-methylphenyl)amino]-2-pyrimidinyl}amino)phenyl]carbonyl}amino)-ethyl]amino}carbonyl)-2-(6-hydroxy-3-oxo-3H-xanthen-9-yl)benzoic acid from His6-MBP-TEV-full length human TNNI3K expressed in Baculovirus expression system after 60 mins by fluorescence polarization assay
For clarity, pIC50 is expressed as the negative log10 of concentration in mol/L.

Look over these answered cases.
>  <smiles-notation>
CNS(=O)(=O)c1cccc(Nc2ncnc3[nH]cc(-c4ccccc4Cl)c23)c1

>  <pIC50>
7.40

$$$$
>  <smiles-notation>
CNS(=O)(=O)c1cccc(Nc2ncnc3[nH]ccc23)c1

>  <pIC50>
7.10

$$$$
>  <smiles-notation>
CNS(=O)(=O)c1cccc(Nc2ncnc3[nH]c(-c4ccc(O)cc4)cc23)c1

>  <pIC50>
7.89

$$$$
>  <smiles-notation>
CNS(=O)(=O)c1cccc(Nc2nc(N)nc3[nH]cnc23)c1

>  <pIC50>
5.10

$$$$
>  <smiles-notation>
CNS(=O)(=O)c1cccc(Nc2ccnc3[nH]ccc23)c1

>  <pIC50>
5.10

$$$$

Data request: Indicate the recorded pIC50 value for this compound: CCNS(=O)(=O)c1cccc(Nc2ncnc3[nH]cnc23)c1
Data returned: 5.70

###

Catalogue of molecules with associated pIC50
# assayed-target: Serine/threonine-protein kinase TNNI3K (Homo sapiens, UniProt Q59H18)
# Sequence (Q59H18 whole entry): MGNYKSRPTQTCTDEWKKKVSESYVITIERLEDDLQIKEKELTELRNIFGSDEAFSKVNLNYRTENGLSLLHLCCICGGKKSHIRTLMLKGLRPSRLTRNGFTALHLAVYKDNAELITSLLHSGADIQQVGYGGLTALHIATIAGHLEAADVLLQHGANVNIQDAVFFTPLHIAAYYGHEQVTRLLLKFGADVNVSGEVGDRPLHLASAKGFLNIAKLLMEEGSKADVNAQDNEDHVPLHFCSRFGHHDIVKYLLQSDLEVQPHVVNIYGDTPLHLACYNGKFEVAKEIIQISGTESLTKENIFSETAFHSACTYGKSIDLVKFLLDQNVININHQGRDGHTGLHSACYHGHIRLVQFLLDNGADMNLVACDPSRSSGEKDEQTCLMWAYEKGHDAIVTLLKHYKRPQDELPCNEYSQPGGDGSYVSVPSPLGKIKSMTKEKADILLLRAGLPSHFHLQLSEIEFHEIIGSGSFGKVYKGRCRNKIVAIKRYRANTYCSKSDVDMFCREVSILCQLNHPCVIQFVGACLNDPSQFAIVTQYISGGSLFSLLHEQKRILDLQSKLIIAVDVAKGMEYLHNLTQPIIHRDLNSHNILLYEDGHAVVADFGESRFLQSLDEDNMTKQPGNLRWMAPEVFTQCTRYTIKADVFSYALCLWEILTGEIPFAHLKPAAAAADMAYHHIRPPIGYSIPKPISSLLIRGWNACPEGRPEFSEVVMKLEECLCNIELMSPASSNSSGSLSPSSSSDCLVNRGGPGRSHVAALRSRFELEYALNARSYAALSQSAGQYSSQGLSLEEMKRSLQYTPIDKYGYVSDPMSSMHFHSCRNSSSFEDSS
# assay-method-text: Displacement of 5-({[2-({[3-({4-[(5-hydroxy-2-methylphenyl)amino]-2-pyrimidinyl}amino)phenyl]carbonyl}amino)-ethyl]amino}carbonyl)-2-(6-hydroxy-3-oxo-3H-xanthen-9-yl)benzoic acid from His6-MBP-TEV-full length human TNNI3K expressed in Baculovirus expression system after 60 mins by fluorescence polarization assay
For clarity, pIC50 is expressed as the negative log10 of concentration in mol/L.

>  <smiles-notation>
CNS(=O)(=O)c1cccc(Nc2ncnc3[nH]cc(-c4ccncc4)c23)c1

>  <pIC50>
7.00

$$$$
>  <smiles-notation>
CNS(=O)(=O)c1ccc(N(C)C)c(Nc2ncnc3[nH]ccc23)c1

>  <pIC50>
7.30

$$$$
>  <smiles-notation>
CNS(=O)(=O)c1cccc(Nc2ncnc3[nH]cc(-c4ccccc4)c23)c1

>  <pIC50>
7.40

$$$$

Below: the item to evaluate.
Data request: Indicate the recorded pIC50 value for this molecule: CNS(=O)(=O)c1cccc(N(C)c2ncnc3[nH]ccc23)c1
Data returned: 5.30

###

# assayed-target: Serine/threonine-protein kinase TNNI3K (Homo sapiens, UniProt Q59H18)
# Sequence (Q59H18 whole entry): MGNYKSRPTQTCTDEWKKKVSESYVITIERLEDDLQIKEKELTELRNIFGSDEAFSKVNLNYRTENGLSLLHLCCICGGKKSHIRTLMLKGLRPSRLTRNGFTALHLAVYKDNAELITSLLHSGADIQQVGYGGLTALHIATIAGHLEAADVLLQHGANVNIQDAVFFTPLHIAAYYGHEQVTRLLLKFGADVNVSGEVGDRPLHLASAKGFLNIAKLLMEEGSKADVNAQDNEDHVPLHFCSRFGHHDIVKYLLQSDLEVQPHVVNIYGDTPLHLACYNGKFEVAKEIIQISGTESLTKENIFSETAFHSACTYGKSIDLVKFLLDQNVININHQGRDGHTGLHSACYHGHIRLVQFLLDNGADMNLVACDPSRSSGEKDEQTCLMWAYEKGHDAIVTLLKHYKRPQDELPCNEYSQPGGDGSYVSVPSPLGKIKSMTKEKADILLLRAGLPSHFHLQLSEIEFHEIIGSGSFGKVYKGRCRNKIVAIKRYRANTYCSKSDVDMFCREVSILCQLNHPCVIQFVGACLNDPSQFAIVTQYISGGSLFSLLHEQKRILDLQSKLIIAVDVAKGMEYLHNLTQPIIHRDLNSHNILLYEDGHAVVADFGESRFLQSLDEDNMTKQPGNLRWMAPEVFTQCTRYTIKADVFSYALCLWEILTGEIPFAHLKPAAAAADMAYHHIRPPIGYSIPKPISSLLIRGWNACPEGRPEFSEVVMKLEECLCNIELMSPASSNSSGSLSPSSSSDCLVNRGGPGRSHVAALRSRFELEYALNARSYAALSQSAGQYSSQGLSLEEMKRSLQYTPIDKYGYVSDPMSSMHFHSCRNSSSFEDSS
# assay-method-text: Displacement of 5-({[2-({[3-({4-[(5-hydroxy-2-methylphenyl)amino]-2-pyrimidinyl}amino)phenyl]carbonyl}amino)-ethyl]amino}carbonyl)-2-(6-hydroxy-3-oxo-3H-xanthen-9-yl)benzoic acid from His6-MBP-TEV-full length human TNNI3K expressed in Baculovirus expression system after 60 mins by fluorescence polarization assay
experimental-readout: IC50 (µM)
Numbers only; they are read as µM.

>  <smiles-notation>
CNS(=O)(=O)c1cccc(Nc2ncnc3[nH]c4ccccc4c23)c1

>  <IC50, µM>
0.1

$$$$
>  <smiles-notation>
CNS(=O)(=O)c1cccc(Nc2ncnc3[nH]cc(-c4ccc(C(=O)O)cc4)c23)c1

>  <IC50, µM>
0.1

$$$$

Data request: Provide measured IC50 on Serine/threonine-protein kinase TNNI3K (Homo sapiens, UniProt Q59H18) for CNS(=O)(=O)c1cccc(Nc2ncnc3[nH]cc(-c4ccc(Cl)cc4)c23)c1 please.
Data returned: 0.1

###

Catalogue of compounds with associated AUC/dose
# Test system: Rattus norvegicus
# assay-method-text: Dose normalized AUC in po dosed Sprague-Dawley rat by LC/MS/MS analysis
# Assay type: ADME, organism-based
# applied-conditions: in vivo
Numbers only; they are read as kg·h/L.

>  <smiles-notation>
CNS(=O)(=O)c1cccc(Nc2ncnc3[nH]cc(-c4ccncc4)c23)c1

>  <readout-unit>
kg·h/L

>  <AUC/dose>
0

$$$$
>  <smiles-notation>
CNS(=O)(=O)c1cccc(Nc2ncnc3[nH]cc(F)c23)c1

>  <readout-unit>
kg·h/L

>  <AUC/dose>
0.28

$$$$
>  <smiles-notation>
CNS(=O)(=O)c1ccc(N2CCOCC2)c(Nc2ncnc3[nH]cc(Br)c23)c1

>  <readout-unit>
kg·h/L

>  <AUC/dose>
0.32

$$$$
>  <smiles-notation>
CNS(=O)(=O)c1cccc(Nc2ncnc3[nH]c(-c4ccncc4)cc23)c1

>  <readout-unit>
kg·h/L

>  <AUC/dose>
0

$$$$

Below: the item to evaluate.
Data request: Indicate the recorded AUC/dose value for this compound: CNS(=O)(=O)c1cccc(Nc2ncnc3[nH]ccc23)c1
Data returned: 0.08
